System: Escherichia coli TOP10
Assay: shrunken log2 fold change of peptide-encoding DNA abundance (4.5 h post-induction vs induction); higher = less antimicrobial activity (less host growth inhibition)
Conditions: time post-induction: 4.5 h; library: site-saturation at positions 5, 18, 19, 20
Can you tell me shrunken log2 fold change for the items I'm about to list?
Numbers only.

Illustrative cases are given below, each with its answer.
record.sequence: RRIRSRPPRLPRPRPRPENFPRP
subject.of.test: Escherichia coli TOP10
shrunken log2 fold change: -0.0342

record.sequence: RRIRDRPPRLPRPRPRPASCPRP
subject.of.test: Escherichia coli TOP10
shrunken log2 fold change: 0.0585

record.sequence: RRIRMRPPRLPRPRPRPGPVPRP
subject.of.test: Escherichia coli TOP10
shrunken log2 fold change: 1.14

record.sequence: RRIRYRPPRLPRPRPRPYQFPRP
subject.of.test: Escherichia coli TOP10
shrunken log2 fold change: -0.183

record.sequence: RRIRLRPPRLPRPRPRPKMVPRP
subject.of.test: Escherichia coli TOP10
shrunken log2 fold change: -0.146

List reported shrunken log2 fold change for each of these sequences:
1. RRIRWRPPRLPRPRPRPFYDPRP
2. RRIRIRPPRLPRPRPRPRQDPRP
3. RRIRPRPPRLPRPRPRPPEFPRP
4. RRIRNRPPRLPRPRPRPHMGPRP
5. RRIRPRPPRLPRPRPRPLWQPRP
6. RRIRCRPPRLPRPRPRPMVMPRP

**Result**
1: -0.21; 2: 0.0231; 3: -0.122; 4: -0.133; 5: 0.0105; 6: 0.0583

List the reported shrunken log2 fold change of each sequence below.
1. RRIRMRPPRLPRPRPRPVIEPRP
2. RRIRGRPPRLPRPRPRPWNWPRP
3. RRIRVRPPRLPRPRPRPFKFPRP
4. RRIRHRPPRLPRPRPRPAHTPRP

**Result**
1. -0.0535
2. 0.232
3. -0.0599
4. -0.199

Can you give me shrunken log2 fold change for all of these, one by one?
1. RRIRRRPPRLPRPRPRPPHMPRP
2. RRIRYRPPRLPRPRPRPTPAPRP
3. RRIRFRPPRLPRPRPRPRRNPRP
4. RRIRQRPPRLPRPRPRPDWAPRP
5. RRIRARPPRLPRPRPRPITSPRP
6. RRIRCRPPRLPRPRPRPFCHPRP
7. RRIRGRPPRLPRPRPRPADIPRP

**Result**
1.11
0.238
0.136
-0.012
0.157
-0.142
-0.229

// input: 8 sequences below; output: shrunken log2 fold change for each
1. RRIRARPPRLPRPRPRPKTQPRP
2. RRIRVRPPRLPRPRPRPLCFPRP
3. RRIRWRPPRLPRPRPRPFATPRP
4. RRIRARPPRLPRPRPRPSIKPRP
5. RRIRCRPPRLPRPRPRPIFNPRP
6. RRIRIRPPRLPRPRPRPDGCPRP
7. RRIRTRPPRLPRPRPRPQWCPRP
8. RRIRMRPPRLPRPRPRPHYQPRP

**Result**
0.0119
0.258
0.834
-0.133
-0.542
-0.229
-0.0353
-0.228

* * *

Tested on: Escherichia coli TOP10
Assay: shrunken log2 fold change of peptide-encoding DNA abundance (4.5 h post-induction vs induction); higher = less antimicrobial activity (less host growth inhibition)
Settings: time post-induction: 4.5 h; library: site-saturation at positions 5, 18, 19, 20
For each of the sequences below, state its shrunken log2 fold change.
Numbers only.

record.sequence: RRIRIRPPRLPRPRPRPNKHPRP
shrunken log2 fold change: -0.727

Please supply shrunken log2 fold change for each of the following items, keeping them in order.
1. RRIRRRPPRLPRPRPRPMQTPRP
2. RRIRCRPPRLPRPRPRPAHYPRP
3. RRIRIRPPRLPRPRPRPKLGPRP

**Result**
-0.00191
-0.127
-0.217

**Query** Quick one: shrunken log2 fold change for `RRIRQRPPRLPRPRPRPEPVPRP` ?
**Result** 0.0323

* * *

Test system: Escherichia coli TOP10
Test: shrunken log2 fold change of peptide-encoding DNA abundance (4.5 h post-induction vs induction); higher = less antimicrobial activity (less host growth inhibition)
Details: time post-induction: 4.5 h; library: site-saturation at positions 5, 18, 19, 20
reported.metric: shrunken log2 fold change
Give bare numbers.

Worked cases, shrunken log2 fold change given:
record.sequence: RRIRCRPPRLPRPRPRPNDEPRP
shrunken log2 fold change: -0.0298

record.sequence: RRIRFRPPRLPRPRPRPCPQPRP
shrunken log2 fold change: -0.697

record.sequence: RRIRERPPRLPRPRPRPEGHPRP
shrunken log2 fold change: 0.11

record.sequence: RRIRDRPPRLPRPRPRPLYYPRP
shrunken log2 fold change: 0.176

record.sequence: RRIRERPPRLPRPRPRPGMIPRP
shrunken log2 fold change: -0.439

record.sequence: RRIRVRPPRLPRPRPRPWTSPRP
shrunken log2 fold change: -0.329

record.sequence: RRIRARPPRLPRPRPRPCSKPRP
shrunken log2 fold change: 0.0365

record.sequence: RRIRLRPPRLPRPRPRPGGFPRP
shrunken log2 fold change: 0.176

Give one value of shrunken log2 fold change per listed sequence.
1. RRIRCRPPRLPRPRPRPTPCPRP
2. RRIRTRPPRLPRPRPRPWTWPRP
3. RRIRVRPPRLPRPRPRPEELPRP
4. RRIRIRPPRLPRPRPRPFFTPRP
5. RRIRPRPPRLPRPRPRPLKRPRP
6. RRIRMRPPRLPRPRPRPVFYPRP

**Result**
1: 0.281; 2: -0.0696; 3: -0.0522; 4: -0.312; 5: -0.161; 6: -0.0165

Give shrunken log2 fold change for all sequences that follow.
1. RRIRFRPPRLPRPRPRPKPWPRP
2. RRIRVRPPRLPRPRPRPSYIPRP
3. RRIRLRPPRLPRPRPRPSQNPRP
4. RRIRCRPPRLPRPRPRPIHAPRP
5. RRIRMRPPRLPRPRPRPPVPPRP
6. RRIRDRPPRLPRPRPRPVCYPRP
7. RRIRGRPPRLPRPRPRPPYAPRP
8. RRIRTRPPRLPRPRPRPTVHPRP

**Result**
1. 0.489
2. -0.74
3. -0.278
4. -0.0479
5. 1.01
6. -0.0717
7. 0.798
8. -0.199

* * *

Would you mind telling me the reported shrunken log2 fold change of each entry?
Tested on: Escherichia coli TOP10
Assay: shrunken log2 fold change of peptide-encoding DNA abundance (4.5 h post-induction vs induction); higher = less antimicrobial activity (less host growth inhibition)
Conditions: time post-induction: 4.5 h; library: site-saturation at positions 5, 18, 19, 20

Record excerpt, results attached:
record.sequence: RRIRHRPPRLPRPRPRPHCLPRP
endpoint.value: -0.777
//
record.sequence: RRIRIRPPRLPRPRPRPSDNPRP
endpoint.value: -0.421
//
record.sequence: RRIRDRPPRLPRPRPRPVLLPRP
endpoint.value: -0.00551

Each of the following entries comes with a recorded value; kindly state shrunken log2 fold change for each.
1. RRIRARPPRLPRPRPRPCVYPRP
2. RRIRFRPPRLPRPRPRPQVPPRP

**Result**
1: 0.121; 2: -0.144

Batch lookup, shrunken log2 fold change per entry.
1. RRIRRRPPRLPRPRPRPRQIPRP
2. RRIRHRPPRLPRPRPRPEHPPRP
3. RRIRHRPPRLPRPRPRPEDDPRP
4. RRIRQRPPRLPRPRPRPEWKPRP
5. RRIRDRPPRLPRPRPRPPEMPRP
6. RRIRVRPPRLPRPRPRPSRHPRP

**Result**
[0.452, 0.00839, 0.141, -0.00192, 0.78, -0.0783]

Record shrunken log2 fold change per entry; entries follow.
1. RRIRIRPPRLPRPRPRPDWAPRP
2. RRIRERPPRLPRPRPRPQYVPRP
3. RRIRIRPPRLPRPRPRPGHAPRP
4. RRIRQRPPRLPRPRPRPHMWPRP
5. RRIRLRPPRLPRPRPRPENSPRP
6. RRIRCRPPRLPRPRPRPFFDPRP
7. RRIRQRPPRLPRPRPRPKTKPRP
8. RRIRERPPRLPRPRPRPHKYPRP

**Result**
-0.0489
-0.215
-0.0343
-0.129
0.000683
-0.199
-0.254
-0.902

* * *

System: Escherichia coli TOP10;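 further: peptides expressed intracellularly from a pBAD plasmid library in pooled LB shake-flask culture, induced with 0.3% L-arabinose, DNA abundance read by NGS, three biological replicates, DESeq2 with apeglm shrinkage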
Test: shrunken log2 fold change of peptide-encoding DNA abundance (4.5 h post-induction vs induction); higher = less antimicrobial activity (less host growth inhibition)
Details: time post-induction: 4.5 h; library: site-saturation at positions 5, 18, 19, 20
Returns one of met or not met; met when shrunken log2 fold change is >= -0.1.

Example cases with answers are listed next.
record.sequence: RRIRIRPPRLPRPRPRPALFPRP
subject.of.test: Escherichia coli TOP10
assigned.label: not met
//
record.sequence: RRIRYRPPRLPRPRPRPTHVPRP
subject.of.test: Escherichia coli TOP10
assigned.label: not met
//
record.sequence: RRIRFRPPRLPRPRPRPKYWPRP
subject.of.test: Escherichia coli TOP10
assigned.label: not met
//
record.sequence: RRIRNRPPRLPRPRPRPDCEPRP
subject.of.test: Escherichia coli TOP10
assigned.label: met
//
record.sequence: RRIRDRPPRLPRPRPRPVKVPRP
subject.of.test: Escherichia coli TOP10
assigned.label: met

Moving on to another sequence below.
**Query** Please indicate if the recorded shrunken log2 fold change for `RRIRMRPPRLPRPRPRPYYVPRP` meets or exceeds -0.1.
**Result** met
